I'd appreciate it if you could supply glycan array binding signal (z-score) values for the items below.
# measurement target: Neu5Ac(a2-3)Gal(b1-4)GlcNAc(b1-2)Man(a1-3)[Neu5Ac(a2-3)Gal(b1-4)GlcNAc(b1-2)Man(a1-6)]Man(b1-4)GlcNAc(b1-4)[Fuc(a1-6)]GlcNAc
# experiment description: glycan array binding signal (z-score within array); higher = stronger binding
# details: glycan notation: IUPAC condensed, linker removed
Only a selection was taken, and the strongest signals are over-represented in it overall.
Give bare numbers.

Hi there! I need glycan array binding signal (z-score) for each item below, if you can.
1. Clec12b (Mus musculus), Q149M0 (protein) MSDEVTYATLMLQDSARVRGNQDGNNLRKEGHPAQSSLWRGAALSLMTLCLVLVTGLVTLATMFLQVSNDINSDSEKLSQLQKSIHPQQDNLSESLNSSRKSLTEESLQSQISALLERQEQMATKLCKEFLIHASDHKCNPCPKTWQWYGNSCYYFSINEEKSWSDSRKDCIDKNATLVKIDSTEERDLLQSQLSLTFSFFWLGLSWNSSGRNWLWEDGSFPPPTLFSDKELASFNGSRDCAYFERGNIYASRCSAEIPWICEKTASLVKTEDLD
2. Cohesin-mDCIR (Macaca mulatta) (protein) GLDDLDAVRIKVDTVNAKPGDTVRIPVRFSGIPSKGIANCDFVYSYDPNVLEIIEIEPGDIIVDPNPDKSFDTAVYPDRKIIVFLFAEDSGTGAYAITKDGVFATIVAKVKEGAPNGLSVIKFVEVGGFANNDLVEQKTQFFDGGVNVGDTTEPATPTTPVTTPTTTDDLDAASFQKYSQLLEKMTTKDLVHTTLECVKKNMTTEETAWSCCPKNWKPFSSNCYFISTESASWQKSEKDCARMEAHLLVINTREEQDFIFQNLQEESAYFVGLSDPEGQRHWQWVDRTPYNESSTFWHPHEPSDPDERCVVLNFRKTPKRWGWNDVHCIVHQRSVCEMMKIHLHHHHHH

11.9
-0.364
